Recorded log10 IC50 for the following compounds
# target of assay: human H3 receptor (Homo sapiens)
# Sequence (Q9Y5N1 whole entry): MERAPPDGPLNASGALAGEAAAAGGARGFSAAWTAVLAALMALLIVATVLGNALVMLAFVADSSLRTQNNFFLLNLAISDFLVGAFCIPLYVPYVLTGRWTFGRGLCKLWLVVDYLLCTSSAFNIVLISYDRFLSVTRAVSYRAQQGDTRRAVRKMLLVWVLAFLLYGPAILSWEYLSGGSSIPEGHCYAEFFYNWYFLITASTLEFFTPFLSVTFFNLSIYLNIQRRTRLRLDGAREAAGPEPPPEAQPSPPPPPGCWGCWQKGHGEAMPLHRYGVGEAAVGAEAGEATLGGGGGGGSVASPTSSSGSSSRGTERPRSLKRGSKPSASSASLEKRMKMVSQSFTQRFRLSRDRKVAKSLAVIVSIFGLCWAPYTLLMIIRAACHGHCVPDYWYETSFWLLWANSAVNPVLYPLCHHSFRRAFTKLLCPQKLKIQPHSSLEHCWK
# test method notes: H3 receptor binding test (R(−)-α-methyl[3H]histamine)
# Parameters: purchased Euroscreen ES-392-M; host or cells: CHO-K1
# run parameters: inhibition of R(−)-α-methyl[3H]histamine (2 nM) binding, membrane of human H3 receptor-expressing CHO-K1 cells
Scale: log10; quantity: IC50; unit before log: nM

Quick one: log10 IC50 of CC1CCCN1CCCOc1ccc(-n2cc(N3CCOC3=O)cn2)cc1 (stereo not drawn) [Example 34] ?
0.32

Quick one: log10 IC50 of C[C@@H]1CCCN1CCOc1ccc(-n2cc(C(=O)N3CCOCC3)cn2)cc1 [Example 60] ?
3.19

Quick one: log10 IC50 of C[C@@H]1CCCN1CCCOc1ccc(-n2cc(NC(=O)Cc3ccc(O)cc3)cn2)cc1 [Example 45] ?
0.04

Quick one: log10 IC50 of CC1CCCN1CCCOc1ccc(-n2cc(NC(=O)c3ccc(C#N)cc3)cn2)cc1 (stereo not drawn) [Example 40] ?
0.64

Quick one: log10 IC50 of C[C@@H]1CCCN1CCCOc1ccc(-n2cc(NC(=O)c3cccnc3)cn2)cc1 [Example 43] ?
0.00

Quick one: log10 IC50 of C[C@@H]1CCCN1CCCOc1ccc(-n2cc(C(=O)N3CCOCC3)cn2)cc1Br [Example 64] ?
1.00

Quick one: log10 IC50 of CC1CCCN1CCCOc1ccc(-n2cc(C(=O)NC(C)(C)C)cn2)cc1 (stereo not drawn) [Example 11] ?
0.26

Quick one: log10 IC50 of CCC1CCCN1CCCOc1ccc(-n2cc(C(=O)N3CCOCC3)cn2)cc1 (stereo not drawn) [Example 58] ?
0.94

Quick one: log10 IC50 of O=C(c1cnn(-c2ccc(OCCCN3CCCCC3)cc2)c1)N1CCOCC1 [Example 9] ?
0.93
